SYSTEM: Oxytocin receptor (Homo sapiens) (UniProt P30559)
Sequence (P30559 whole entry): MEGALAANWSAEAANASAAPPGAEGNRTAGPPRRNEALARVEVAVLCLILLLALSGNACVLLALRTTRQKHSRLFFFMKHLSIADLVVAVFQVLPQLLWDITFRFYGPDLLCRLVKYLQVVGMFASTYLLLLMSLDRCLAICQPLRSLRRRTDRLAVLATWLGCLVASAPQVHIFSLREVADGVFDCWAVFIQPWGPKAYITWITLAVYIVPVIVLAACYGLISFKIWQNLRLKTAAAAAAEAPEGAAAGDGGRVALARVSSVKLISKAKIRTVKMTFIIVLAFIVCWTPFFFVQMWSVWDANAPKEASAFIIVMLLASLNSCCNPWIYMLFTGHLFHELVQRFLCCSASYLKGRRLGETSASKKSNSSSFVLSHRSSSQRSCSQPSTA
TEST NAME: Agonist activity at recombinant human Gi/Go-coupled OTR expressed in CHOK1 cells assessed as induction of beta-arrestin recruitment measured after 90 mins in presence of 10% FBS by pathhunter assay relative to oxytocin
Type: cell-based
Numbered stars: 1 amine (or outer) side, 2 acyl side, 3 side chain; on linkers, the order of the positions; unused ones are H or OH. Bridge positions count the residues as written; N and C are the ends. Peptide text beside a SMILES is read from it. * marks the point of attachment. X3 = CCCCCCCCCCCCCC(=O)NCCOCCOCCNC(=O)C*; X2 = O=C(CCC[*:2])[*:1]; Cam = NC(=O)C*
MEASUREMENT TYPE: %max (%)
Numeric only. Scale: %

Known results for compounds:
COMPOUND	%max / %
CCCCCCCCCCCCCC(=O)NCCOCCOCCNC(=O)CSC[C@H](NC(=O)[C@@H]1CCCN1C(=O)[C@@H]1CSCCCC(=O)N[C@@H](Cc2ccc(O)cc2)C(=O)N[C@@H]([C@@H](C)CC)C(=O)N[C@@H](CCC(N)=O)C(=O)N[C@@H](CC(N)=O)C(=O)N1)C(=O)NCC(N)=O (YIQNCPC(X3)G-NH2; linker N-5 via X2)	70
CCCCCCCCCCCCCC(=O)NCCOCCOCCNC(=O)CSC[C@@H]1NC(=O)[C@H](Cc2ccc(O)cc2)NC(=O)CCCSC[C@@H](C(=O)N2CCC[C@H]2C(=O)N[C@@H](CC(C)C)C(=O)NCC(N)=O)NC(=O)[C@H](CC(N)=O)NC(=O)[C@H](CCC(N)=O)NC1=O (YC(X3)QNCPLG-NH2; linker N-5 via X2)	2.3
CC(C)C[C@H](NC(=O)[C@@H]1CCCN1C(=O)[C@@H]1CSCCCC(=O)N[C@@H](Cc2ccc(O)cc2)C(=O)N[C@@H](CSCC(N)=O)C(=O)N[C@@H](CCC(N)=O)C(=O)N[C@@H](CC(N)=O)C(=O)N1)C(=O)NCC(N)=O (YC(Cam)QNCPLG-NH2; linker N-5 via X2)	2
CC[C@H](C)[C@@H]1NC(=O)[C@H](Cc2ccc(O)cc2)NC(=O)CCCSC[C@@H](C(=O)N2CCC[C@H]2C(=O)N[C@@H](CC(C)C)C(=O)NCC(N)=O)NC(=O)[C@H](CC(N)=O)NC(=O)[C@H](CSCC(N)=O)NC1=O (YIC(Cam)NCPLG-NH2; linker N-5 via X2)	47
CC[C@H](C)[C@@H]1NC(=O)[C@H](Cc2ccc(O)cc2)NC(=O)CCCSC[C@@H](C(=O)N2CCC[C@H]2C(=O)N[C@@H](CSCC(N)=O)C(=O)NCC(N)=O)NC(=O)[C@H](CC(N)=O)NC(=O)[C@H](CCC(N)=O)NC1=O (YIQNCPC(Cam)G-NH2; linker N-5 via X2)	97

IN: Which %max value is on record for CCCCCCCCCCCCCC(=O)NCCOCCOCCNC(=O)CSC[C@@H]1NC(=O)[C@H]([C@@H](C)CC)NC(=O)[C@H](Cc2ccc(O)cc2)NC(=O)CCCSC[C@@H](C(=O)N2CCC[C@H]2C(=O)N[C@@H](CC(C)C)C(=O)NCC(N)=O)NC(=O)[C@H](CC(N)=O)NC1=O (YIC(X3)NCPLG-NH2; linker N-5 via X2) ?
OUT: 5.8
